- assay-remarks: Partition coefficient (logP)
- Type: physicochemical
- condition-parameters: octanol/water
// 0 (no) strictly below 4 in logP; 1 (yes) otherwise

Consider the following illustrative entries.
COc1cc(C2=NCCO2)ccc1OCCCCCc1cc(C)no1 : 0 (no)
Cc1cc(CCCCCOc2ccc(C3=NCCO3)cc2C(F)(F)F)on1 : 1 (yes)
CCc1cc(C2=NCCO2)ccc1OCCCCCc1cc(C)no1 : 1 (yes)

Task: State whether the measured logP reaches 4, counting equality as reaching it, for Cc1cc(CCCCCOc2ccc(C3=NCCO3)cc2[N+](=O)[O-])on1
Output: 0 (no)

Task: State whether the measured logP reaches 4, counting equality as reaching it, for Cc1cc(CCCCCOc2ccc(C3=NCCO3)cc2C(F)F)on1
Output: 1 (yes)

Task: State whether the measured logP reaches 4, counting equality as reaching it, for Cc1cc(CCCCCOc2ccc(C3=NCCO3)cc2C)on1
Output: 1 (yes)

* * *

MIC80 overview
- System: human rhinovirus (15-serotype panel)
- assay-remarks: Antirhinovirus activity was determined by the ability to inhibit the growth of 80% of a panel of 15 human rhinovirus serotypes
Please reply with the bare figure in µM and do not write the unit itself.

# count of solved cases: 5
Cc1cc(CCCCCOc2ccc(C3=NCCO3)cc2Cl)on1 : 1
Cc1cc(CCCCCOc2ccc(C3=NCCO3)cc2C)on1 : 0.6
Cc1cc(CCCCCOc2ccc(C3=NCCO3)cc2Br)on1 : 1.4
CC(=O)c1cc(C2=NCCO2)ccc1OCCCCCc1cc(C)no1 : 5.1
Cc1cc(CCCCCOc2ccc(C3=NCCO3)cc2)on1 : 7

Task: Under human rhinovirus (15-serotype panel): MIC80 value of Cc1cc(CCCCCCCOc2ccc(C3=NCCO3)cc2Cl)on1 ?
Output: 2.8

Task: Under human rhinovirus (15-serotype panel): MIC80 value of C=Cc1cc(C2=NCCO2)ccc1OCCCCCc1cc(C)no1 ?
Output: 1.6

Task: Under human rhinovirus (15-serotype panel): MIC80 value of COc1cc(C2=NCCO2)ccc1OCCCCCc1cc(C)no1 ?
Output: 1.9

Task: Under human rhinovirus (15-serotype panel): MIC80 value of Cc1cc(CCCCCCOc2ccc(C3=NCCO3)cc2Cl)on1 ?
Output: 1.2

Task: Under human rhinovirus (15-serotype panel): MIC80 value of Cc1cc(CCCCOc2ccc(C3=NCCO3)cc2Cl)on1 ?
Output: 3.6

Task: Under human rhinovirus (15-serotype panel): MIC80 value of Cc1cc(CCCCCOc2ccc(C3=NCCO3)cc2C(F)F)on1 ?
Output: 2

Task: Under human rhinovirus (15-serotype panel): MIC80 value of Cc1cc(CCCCCOc2ccc(C3=NCCO3)cc2[N+](=O)[O-])on1 ?
Output: 1.8

Task: Under human rhinovirus (15-serotype panel): MIC80 value of C=CCc1cc(C2=NCCO2)ccc1OCCCCCc1cc(C)no1 ?
Output: 2.1

Task: Under human rhinovirus (15-serotype panel): MIC80 value of Cc1cc(CCCCCOc2ccc(C3=NCCO3)cc2C(F)(F)F)on1 ?
Output: 1.1

Task: Under human rhinovirus (15-serotype panel): MIC80 value of Cc1cc(CCCCCOc2ccc(C3=NCCO3)c(Cl)c2)on1 ?
Output: 7

Task: Under human rhinovirus (15-serotype panel): MIC80 value of CCc1cc(C2=NCCO2)ccc1OCCCCCc1cc(C)no1 ?
Output: 2

Task: Under human rhinovirus (15-serotype panel): MIC80 value of Cc1cc(CCCCCOc2ccc(C3=NCCO3)c(C)c2)on1 ?
Output: 15
